molecular target: Cathepsin B (Bos taurus) (UniProt P07688); assay: Percent inhibition of bovine cathepsin B at 20 uM
Square brackets hold non-standard residues; d marks the D form. Peptide text beside a SMILES is read from it. * marks the point of attachment. ξ: configuration not given here. ξF = NC(Cc1ccccc1)C(=O)O; Cbz = O=C(OCc1ccccc1)*
Cut-off 40% on inhibition, inclusive. At or above means Criterion met; below means Criterion not met.

inhibition >= 40% for Cc1c(C(=O)N[C@@H](Cc2ccccc2)C(=O)C(=O)NC(C)C)oc2ccccc2c1=O ?
Criterion met

inhibition >= 40% for Cc1c(C(=O)N[C@@H](Cc2ccccc2)C(=O)C(N)=O)oc2ccccc2c1=O ?
Criterion met

inhibition >= 40% for CC(C)[C@H](NC(=O)OCc1ccccc1)C(=O)NC(C=O)Cc1ccccc1 (stereo partly drawn) (Cbz-Val-[ξF]-aldehyde) ?
Criterion met

inhibition >= 40% for Cc1c(C(=O)N[C@@H](Cc2ccccc2)C(=O)C(N)=O)oc2cc3c(cc2c1=O)OCCO3 ?
Criterion met

inhibition >= 40% for Cc1c(C(=O)N[C@@H](Cc2ccccc2)C(=O)C(=O)NCCc2ccccc2)oc2cc3c(cc2c1=O)OCCO3 ?
Criterion met

inhibition >= 40% for NC(=O)C(=O)[C@H](Cc1ccccc1)NC(=O)c1cc(=O)c2ccccc2o1 ?
Criterion met

inhibition >= 40% for Cc1c(C(=O)N[C@@H](Cc2ccccc2)C(=O)C(=O)NCc2ccccc2)oc2ccccc2c1=O ?
Criterion met

inhibition >= 40% for CCc1c(C(=O)N[C@@H](Cc2ccccc2)C(=O)C(N)=O)oc2ccccc2c1=O ?
Criterion met

inhibition >= 40% for Cc1c(C(=O)N[C@@H](Cc2ccccc2)C(=O)C(=O)NCc2ccccc2)oc2cc3c(cc2c1=O)OCCO3 ?
Criterion met

inhibition >= 40% for Cc1c(C(=O)N[C@@H](Cc2ccccc2)C(=O)C(=O)NCCN2CCOCC2)oc2cc3c(cc2c1=O)OCCO3 ?
Criterion not met

inhibition >= 40% for Cc1c(C(=O)N[C@@H](Cc2ccccc2)C(=O)C(=O)NC(C)C)oc2cc3c(cc2c1=O)OCCO3 ?
Criterion met

inhibition >= 40% for Cc1c(C(=O)N[C@@H](Cc2ccccc2)C(=O)C(=O)NCCc2ccccc2)oc2ccccc2c1=O ?
Criterion met

inhibition >= 40% for Cc1c(C(=O)N[C@@H](Cc2ccccc2)C(=O)C(=O)NCCN2CCOCC2)oc2ccccc2c1=O ?
Criterion not met

---

Exercise: state measured inhibition for each of the molecules provided.
target: Cathepsin B (Bos taurus) (UniProt P07688); test: Percent inhibition of bovine cathepsin B at 0.2 uM
Square brackets hold non-standard residues; d marks the D form. Peptide text beside a SMILES is read from it. * marks the point of attachment. ξ: configuration not given here. ξF = NC(Cc1ccccc1)C(=O)O; Cbz = O=C(OCc1ccccc1)*
Reply with a number, then the unit it belongs to.

What inhibition appears in the records for this molecule with Cathepsin B (Bos taurus) (UniProt P07688)? Cc1c(C(=O)N[C@@H](Cc2ccccc2)C(=O)C(=O)NCCc2ccccc2)oc2ccccc2c1=O
0%

What inhibition appears in the records for this molecule with Cathepsin B (Bos taurus) (UniProt P07688)? Cc1c(C(=O)N[C@@H](Cc2ccccc2)C(=O)C(=O)NCCN2CCOCC2)oc2cc3c(cc2c1=O)OCCO3
0%

What inhibition appears in the records for this molecule with Cathepsin B (Bos taurus) (UniProt P07688)? Cc1c(C(=O)N[C@@H](Cc2ccccc2)C(=O)C(N)=O)oc2cc3c(cc2c1=O)OCCO3
26.3%

What inhibition appears in the records for this molecule with Cathepsin B (Bos taurus) (UniProt P07688)? NC(=O)C(=O)[C@H](Cc1ccccc1)NC(=O)c1cc(=O)c2ccccc2o1
21.5%

What inhibition appears in the records for this molecule with Cathepsin B (Bos taurus) (UniProt P07688)? CC(C)[C@H](NC(=O)OCc1ccccc1)C(=O)NC(C=O)Cc1ccccc1 (stereo partly drawn) (Cbz-Val-[ξF]-aldehyde)
96%

What inhibition appears in the records for this molecule with Cathepsin B (Bos taurus) (UniProt P07688)? Cc1c(C(=O)N[C@@H](Cc2ccccc2)C(=O)C(=O)NC(C)C)oc2cc3c(cc2c1=O)OCCO3
0%

What inhibition appears in the records for this molecule with Cathepsin B (Bos taurus) (UniProt P07688)? Cc1c(C(=O)N[C@@H](Cc2ccccc2)C(=O)C(=O)NCc2ccccc2)oc2cc3c(cc2c1=O)OCCO3
0%
